Form field: Max MFI (one value per entry).
# target-entity: T1, human Claudin18.2 (human, UniProt P56856-2 1-261)
# T1 construct: whole, on cells; Four-transmembrane protein, always presented on cells (transfected lines or NUGC-4 with endogenous expression); also called CLDN18.2
# assay-name: flow cytometry on Ba/F3-Claudin18.2 cells, purified mouse antibody
# Experimental: The affinity of the candidates to Claudin18.2 was measured using FACS. […] Ba/F3-Claudin18.1 and Ba/F3-Claudin18.2 cells were incubated with the purified mouse antibodies at various concentrations on ice for 30 min and mouse IgG was used as negative control (Thermo Fisher, Cat: 31903), followed by washing with FACS buffer (PBS+2% FBS) twice.

binder	Max MFI
mouse antibody 9C8.1 (antibody, V domains shown, Purified from hybridoma) VH: QVQLQQSGAELVRPGSSVKISCKASGYAFSNYWMNWVKQRPGQGLEWIGQIYPGDGDTNYNGKFKGKATLTTDKSSSTAYMQLSSLTSEDSAVYFCARLYYGNSFAYWGQGTLVTVSS VL: DIVMTQSPSSLTVTAGEKVTVSCKSSQSLLNSGNQKNYLTWYQQKPGQPPKLLIYWASTRESGVPDRFTGSGSGTDFTLTISSVQAADLAIYYCQNDYFYPFTFGGGTKLEIK	4.97e+06 MFI
mouse antibody 1E9.2 (antibody, V domains shown, Purified from hybridoma) VH: EVMLVESGGGLVKPGGSLKLSCAASGFSFSNSAMSWVRQTPEKRLEGVATISSGDSYTYYPDSVKGRFTISRDNAKNSLYLQMSSLRSEDTAVYYCARQGYGNALDYWGQGTSVTVSS VL: DIVMTQSPSSLTVTAGEKVTMSCKSSQSLLNSGNQKNYLTWYQQKPGQPPKLLIYWSSTRESGVPDRFTGSGSGTDFTLTISSVQAEDLAVYYCQNDYYYPLTFGAGTKLELK	5.08e+06 MFI
mouse antibody 19G10.14 (antibody, V domains shown, Purified from hybridoma) VH: QVQLKESGPGLVAPSQSLSITCTVSGFSFTSYGVHWVRQPPGKGLEWLGVIWAGGSTDYNAALMSRLSIRKDNSKSQVFLKMNSLQIADTAMYYCARDGHGKVGFDVWGAGTTVTVSS VL: DIVMTQSPSSLSVSAGEKVTMNCKSSQSLLNSGNQKNYLAWYQQKPGQPPKLLIYGASTRESGVPDRFTGGGSGTDFTLTISSVQAEDLAIYYCQNDHFYPFTFGSGTKLEIK	3.5e+06 MFI
mouse antibody 6B9.22 (antibody, V domains shown, Purified from hybridoma) VH: QVQLQQSGAELVKPGASVKMSCKAFGYTFTSYPIEWMKQNHGKSLEWIGNFHPYNDDTKYNEKFKGKAKLTVEKSSSTVYLELSRLTSDDSAVYYCARTYYGNSFAYWGQGTLVTVSS VL: DIVMTQSPSSLTVTAGEKVTMSCKSSQSLLNSGNQKNYLTWYQQKPGQPPKLLIYWASSRDSGVPHRFTGSGSGTDFTLTISSVQAEDLAFYYCQNDYFYPFTFGAGTKLELK	3.62e+06 MFI
mouse antibody 2C6.9 (antibody, V domains shown, Purified from hybridoma; also called 2C6.9.2) VH: QVQLKESGPGLVAPSQSLSITCTVSGFSLTRYGVSWVRQPPGKGLEWLGVIWGDGNTNFHSFLKSRLSISKDSSKSQVFLKLNSLQTDDTATYYCARVNFGNALDYWGQGTSVTVSS VL: DIVMTQSPSSLTVTAGEEVTMSCKSSQSLLNSGNQKNYLTWYQQKPGQPPKLLIYWASTRDSGVPDRFTGSGSGTDFTLTISSVQSEDLAVYYCQNDFIFPLTFGAGTKLELK	6.11e+06 MFI
mouse antibody 16A9.11 (antibody, V domains shown, Purified from hybridoma) VH: EVMLVESGGGLVKPGGSLKLSCAASGFSFSNSAMSWVRQTPEKRLEGVATISSGDSYTYYPDSVKGRFTISRDTAKNSLYLQMSSLRSEDTAVYYCTRQGYGNAMDYWGQGTSVTVSS VL: DIVMTQSPSSLTVTAGEKVTMSCKSSQSLLNSGNQKNYLTWYQQKPGQPPKLLIYWSSTRESGVPDRFTGSGSGTDFTLTISSVQAEDLAVYYCQNDYYYPLTFGAGTKLELK	5.82e+06 MFI
mouse antibody 19H11.6 (antibody, V domains shown, Purified from hybridoma) VH: EVMLVESGGGLVKPGGSLKLSCAASGFSFSNSAMSWVRQTPEKRLEGVATISSGDSFTYYPDTVKGRFTISRDNAKNSLYLQMSRLRSEDTAVYYCARQGYGNALDYWGQGTSVTVSS VL: DIVMTQSPSSLTVTAGEKVTMTCKSSQSLLNSGNQKNYLTWYQQKPGQPPKLLIYWSSTRESGVPDRFTGSGSGTDFTLTISSVQAEDLAVYYCQNDYYYPLTFGAGTKLELK	6.01e+06 MFI
